Reference source for all entries: patent US20060058231A1

Molecular target: T1, ActRIIa receptor-Fc fusion (UniProt P27037 20-134, limits assumed)
T1 construct: BMP receptor-Fc fusion used at 5 ug/mL
T1 sequence (P27037 20-134 limits assumed): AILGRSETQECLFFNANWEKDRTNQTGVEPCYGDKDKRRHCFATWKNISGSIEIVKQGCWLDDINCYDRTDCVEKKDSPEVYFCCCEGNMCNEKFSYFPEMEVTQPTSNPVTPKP
Assay: ELISA-like plate assay, captured BMP-7 from conditioned media, receptor-Fc detection
Recorded ActRIIa binding (relative to wild type = 1.0) for the following binders
RECORDED ENDPOINT: ActRIIa binding (relative to wild type = 1.0)

[
  {
    "BINDER": "BMP-7 variant L90H (ligand, In conditioned media; numbering on mature BMP-7) STGGKQRSQNRSKTPKNQEALRMASVAENSSSDQRQACKKHELYVSFRDLGWQDWIIAPEGYAAYYCEGECAFPLNSYMNATNHAIVQTHVHFINPETVPKPCCAPTQLNAISVLYFDDSSNVILKKYRNMVVRACGCH",
    "OBS VALUE": "0.47 relative to wild type"
  },
  {
    "BINDER": "BMP-7 variant F117Y (ligand, In conditioned media; numbering on mature BMP-7) STGGKQRSQNRSKTPKNQEALRMASVAENSSSDQRQACKKHELYVSFRDLGWQDWIIAPEGYAAYYCEGECAFPLNSYMNATNHAIVQTLVHFINPETVPKPCCAPTQLNAISVLYYDDSSNVILKKYRNMVVRACGCH",
    "OBS VALUE": "1.03 relative to wild type"
  }
]
